So I've got a bunch of binders here, and I need their koff values.
# targetOrTestSystem: T1, mouse programmed cell death protein 1 Fc fusion protein (mPD-1-Fc), mPD-1 C60S (aa 25-167) (Mus musculus, UniProt Q02242, stabilised)
# T1 construct: not cleaved; source: Expi293F, purified (Protein A, SEC; dimeric fraction); not shown: Fc (human), C-terminal, kept
# assayProtocol: SPR; Carterra LSA; Fab from the ammonium sulfate precipitate of the culture supernatant immobilised on a NiHC200M chip; hPD-1 (1-1024 nM) or mPD-1-Fc (4-1024 nM) as analyte, fourfold dilution series, no regeneration; HBS-EP pH 7.4, 25 °C; medians over the spots of a construct, KD = koff/kon
# testParameters: one partner purified
Answers are plain numbers, in s⁻¹.

>>> recordedmeasurement("toripalimab Fab L.S32Y (Fab, V domains shown, as the heavy chain of Sm3; light chain of Sm3 with this change; numbers count from the chain's first residue; source: Brevibacillus, culture supernatant (ammonium sulfate precipitate); not shown: 6xHis, C-terminal, kept; 6xHN, C-terminal, kept) VH: QGQLVQSGAEVKKPGASVKVSCKASGYTFTDYEMHWVRQAPIHGLEWIGVIESETGGTAYNQKFKGRVTITADKSTSTAYMELSSLRSEDTAVYYCAREGITTVATTYYWYFDVWGQGTTVTVSS VL: DVVMTQSPLSLPVTLGQPASISCRSSQSIVHYNGNTYLEWYLQKPGQSPQLLIYKVSNRFSGVPDRFSGSGSGTDFTLKISRVEAEDVGVYYCFQGSHVPLTFGQGTKLEIK")
0.00346

Q: Fill in the blank: the reported koff of toripalimab Fab L.Q95A (Fab, V domains shown, as the heavy chain of Sm3; light chain of Sm3 with this change; numbers count from the chain's first residue; source: Brevibacillus, culture supernatant (ammonium sulfate precipitate); not shown: 6xHis, C-terminal, kept; 6xHN, C-terminal, kept) VH: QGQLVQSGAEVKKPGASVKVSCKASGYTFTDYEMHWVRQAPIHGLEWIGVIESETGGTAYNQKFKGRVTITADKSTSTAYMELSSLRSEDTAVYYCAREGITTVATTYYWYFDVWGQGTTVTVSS VL: DVVMTQSPLSLPVTLGQPASISCRSSQSIVHSNGNTYLEWYLQKPGQSPQLLIYKVSNRFSGVPDRFSGSGSGTDFTLKISRVEAEDVGVYYCFAGSHVPLTFGQGTKLEIK is ____.
A: 0.00506
